B1: LINE1-full (parent)
chain: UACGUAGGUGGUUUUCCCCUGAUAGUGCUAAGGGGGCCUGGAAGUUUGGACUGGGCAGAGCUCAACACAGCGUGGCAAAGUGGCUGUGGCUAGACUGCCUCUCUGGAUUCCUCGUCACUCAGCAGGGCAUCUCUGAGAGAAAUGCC

# Variants of: B1
# test: self-cleavage, relative activity (ratio to wild type); higher = more cleavage; in vitro, sequencing; the parent is a self-cleaving ribozyme
Returns the class for an entry based on its self-cleavage. Class ranges: group A (below 0.2), group B (0.2 to below 1), group C (1 or more)

Record excerpt, results attached:
A129U U143A; group C
A78G U87C; group A
U15A U47G; group A
G34C A136G; group C
U15C U96A; group A
U81A A107G; group C
U29G C71G; group B
A107U A117C; group C
G36A A121G; group C
A92G G137U; group A

Query: The entry to classify is A117C A136G ; which class holds it?
Response: group C

Query: Could you place U115A A124G in its proper category? Many thanks.
Response: group B

Query: Any idea which band U87C G137U is in?
Response: group B

Query: Which class holds A24G A92C ?
Response: group A

Query: Class (by measured self-cleavage) for C51U
Response: group C

Query: Please let me know in which category the item U13G A69G belongs.
Response: group B

Query: Quick check: band for A107G G127A
Response: group C

Query: Class for U62C C95U ?
Response: group A

Query: Which band does U100C A129G fall in?
Response: group C

Query: Which of the defined bands does the recorded self-cleavage of U26G A78G sit within?
Response: group C

Query: Which category does the recorded self-cleavage put A92G C128A in?
Response: group A
